target-entity: Cytochrome P450 3A4 (Homo sapiens) (UniProt P08684)
Sequence (P08684 whole entry, looked up): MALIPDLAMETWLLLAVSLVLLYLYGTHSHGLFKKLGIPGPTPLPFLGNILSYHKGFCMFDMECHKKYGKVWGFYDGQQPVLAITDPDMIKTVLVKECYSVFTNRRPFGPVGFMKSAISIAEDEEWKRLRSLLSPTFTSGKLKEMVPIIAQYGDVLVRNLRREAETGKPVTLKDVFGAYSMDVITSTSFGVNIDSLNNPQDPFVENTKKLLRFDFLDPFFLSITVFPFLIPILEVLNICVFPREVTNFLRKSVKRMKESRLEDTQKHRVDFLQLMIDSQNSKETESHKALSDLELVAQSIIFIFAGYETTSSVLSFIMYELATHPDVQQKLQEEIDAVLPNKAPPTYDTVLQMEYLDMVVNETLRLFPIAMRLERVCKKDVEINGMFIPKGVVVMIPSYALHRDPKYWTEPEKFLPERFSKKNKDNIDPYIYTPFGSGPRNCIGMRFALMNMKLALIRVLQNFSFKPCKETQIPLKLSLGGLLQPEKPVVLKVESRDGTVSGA
test-name: Cytochrome panel assay with activity outcomes
measurement-parameters: recombinant CYP, pro-luciferin dealkylation, luminescence, p450-cyp3a4; series mostly up to 57.1 µM
In all, about 16,000 compounds went through this assay and about 5,100 (32%) were called active. Not shown: some 25% with an inconclusive outcome. Calls follow the shape of the dose curve; as a rule, active = well fitted curve in the direction sought with a large enough effect; inconclusive = small, poorly fitted or top-dose-only effect, or effect the other way; inactive = no such curve, though single readings can be large or run the other way. Some of the results follow.
Use one of these outcomes when replying: true (active), false (inactive)

Prompt: What outcome does the record of this test show for CS(=O)(=O)c1nc2ccccc2n1Cc1ccccc1 ?
Completion: false

Prompt: What outcome does the record of this test show for CCC(=O)Nc1cccc(-c2nnc(-c3cccc(NC(=O)CC)c3)o2)c1 ?
Completion: true

Prompt: What outcome does the record of this test show for CC1CN(C(=O)c2cc3c(s2)CCC3)CC(C)O1 (centres undefined) ?
Completion: false

Prompt: What outcome does the record of this test show for CN1C(=O)C[C@H](c2ccccc2)C1=O ?
Completion: false

Prompt: What outcome does the record of this test show for Cc1ccccc1-c1nc(NCc2cccnc2)c2ccccc2n1 ?
Completion: true

Prompt: What outcome does the record of this test show for CCCC(=O)Nc1cccc(Oc2nc(C)cc(C)c2C#N)c1 ?
Completion: true

Prompt: What outcome does the record of this test show for CC1(C)Oc2ccc(C#N)cc2[C@H](N2CCCC2=O)[C@H]1O ?
Completion: false

Prompt: What outcome does the record of this test show for CC(O)(CS(=O)(=O)Cc1ccc(Cl)cc1)C(=O)Nc1cccc(C(F)(F)F)c1 (centres undefined) ?
Completion: true

Prompt: What outcome does the record of this test show for COc1ccc(CC(=O)Nc2cccc(-c3nnc(-c4ccco4)o3)c2)cc1 ?
Completion: true

Prompt: What outcome does the record of this test show for CCCCOC(=O)c1ccc(O)cc1 ?
Completion: false

Prompt: What outcome does the record of this test show for Cc1cnc(CNc2cc(-c3ccccc3CN(C)C)ncn2)cn1 ?
Completion: false

Prompt: What outcome does the record of this test show for Nc1ccc(-c2sc(N)nc2-c2ccccc2)cc1 ?
Completion: true

Prompt: What outcome does the record of this test show for O=C(Nc1ccccc1C(=O)NCCc1ccccc1)c1ccco1 ?
Completion: true

Prompt: What outcome does the record of this test show for Oc1c(CN2CCOCC2)cc(-c2ccccc2)cc1CN1CCOCC1 ?
Completion: true

* * *

target-entity: Cytochrome P450 3A4 (Homo sapiens)
test-name: Cytochrome panel assay with activity outcomes; as to activity, negative = inhibition: % is scaled to controls: 0 for no effect and ±100 for the full control effect
measurement-parameters: recombinant CYP, pro-luciferin dealkylation, luminescence, p450-cyp3a4; series mostly up to 57.1 µM
About 5,100 (32%) of roughly 16,000 compounds were called active. About 25% were inconclusive and are not listed. Some of the results follow.
property: activity, negative = inhibition

Memo: CSCC[C@@H]1NC(=O)C/C=C\[C@@H](C)COC(=O)[C@H](C)COC1=O , reported activity, negative = inhibition: -24% [at 11.4 µM] (inactive)

Memo: CCCOc1ccc(/C=C/C(=O)Nc2ccc([N+](=O)[O-])cc2C)cc1 , reported activity, negative = inhibition: 2.56% [at 11.4 µM] (inactive)

Memo: OCCCNCc1ccccn1 , reported activity, negative = inhibition: -7.75% [at 11.4 µM] (inactive)

Memo: O=c1c(Cc2ccccc2)c(O)nc2n1CCS2 , reported activity, negative = inhibition: -2.9% [at 2.29 µM] (inactive)

Memo: CCC(C)(C)n1nnnc1C(c1ccc(C)cc1)N1CCC(C)CC1 (stereo not drawn) , reported activity, negative = inhibition: 21.5% [at 2.29 µM] (inactive)

Memo: CCN(CC)C(=O)c1cc2cc([N+](=O)[O-])ccc2s1 , reported activity, negative = inhibition: 20.4% [at 11.4 µM] (inactive)

Memo: C=C(Br)CN(C)CC(=C)Br , reported activity, negative = inhibition: -1.54% [at 11.4 µM] (inactive)

Memo: Clc1ccc(/C=N/c2c(-c3ccc(Cl)cc3)nc3n2CCS3)cc1 , reported activity, negative = inhibition: -12.1% [at 2.29 µM] (inactive)

Memo: N=C(N)SCc1nc2ccccc2c(=O)n1-c1ccccc1Cl , reported activity, negative = inhibition: -15.4% [at 2.29 µM] (inactive)

Memo: C#CCCCO/N=C1/[C@H]2O[C@@H]2[C@@H](O)[C@H]2[C@H]1CCn1c(=O)n(C)c(=O)n12 , reported activity, negative = inhibition: -24.7% [at 11.4 µM] (inactive)

Memo: Cc1nn(-c2ccc(Cl)cc2)c2sc(C(=O)c3c(N)n(C)c(=O)n(C)c3=O)cc12 , reported activity, negative = inhibition: 7.37% [at 2.29 µM] (inactive)

Memo: FC(F)(F)c1ccc(/C=N/N2CCN(Cc3cccc4ccccc34)CC2)cc1 , reported activity, negative = inhibition: 15.5% [at 2.29 µM] (inactive)

Memo: COCCNC(=O)COC(=O)/C=C/c1cnc2ccccc2n1 , reported activity, negative = inhibition: -3.34% [at 2.29 µM] (inactive)

Memo: Cc1cc(C(=O)N/N=C/c2cccc(OC(=O)c3ccco3)c2)n[nH]1 , reported activity, negative = inhibition: 7.86% [at 2.29 µM] (inactive)

Memo: OC[C@@H]1O[C@@H](O)[C@H](N=Cc2ccc3c(c2)OCO3)[C@@H](O)[C@@H]1O , reported activity, negative = inhibition: -4.87% [at 11.4 µM] (inactive)

Memo: Cn1c(C[C@@H](O)c2nc3ccccc3n2C)nc2ccccc21 , reported activity, negative = inhibition: -14.4% [at 11.4 µM] (inactive)

Memo: Cc1ccc(/C=N/NC(=O)CSc2nc3ccccc3n2C)s1 , reported activity, negative = inhibition: -26.5% [at 2.29 µM] (inactive)

Memo: CCNC(=O)C/C(C)=N/NC(=O)C12CC3CC(CC(C3)C1)C2 , reported activity, negative = inhibition: 18.8% [at 2.29 µM] (inactive)
